// provenance: PubChem BioAssay (EPA / NIEHS)

# TARGET_UNDER_TEST: D(1A) dopamine receptor (Homo sapiens)
# EXPERIMENT_SUMMARY: NVS_GPCR_hDRD1: NovaScreen (NVS) G Protein-Coupled Receptor Assay for human Dopamine Receptor D1 (DRD1) (AID 2283269)
Records with an inconclusive call do not appear. Calls of active or inactive are those of the source. The calls were made as follows: active = hit-call score of the fitted dose curve at least 0.9, where 1 is the maximum; inconclusive = response in the unintended direction; inactive = score below 0.9.
PARAMETER_MEASURED: AC50

[
  {
    "COMPOUND": "CCCCCCCCCCBr",
    "PARAMETER_MEASURED": "AC50",
    "RESULT": "inactive"
  },
  {
    "COMPOUND": "Brc1c(Br)c(Br)c(Oc2c(Br)c(Br)c(Br)c(Br)c2Br)c(Br)c1Br",
    "PARAMETER_MEASURED": "AC50",
    "RESULT": "inactive"
  },
  {
    "COMPOUND": "CC(C)(C)c1cc([N+](=O)[O-])cc(C(C)(C)C)c1O",
    "PARAMETER_MEASURED": "AC50",
    "RESULT": "inactive"
  },
  {
    "COMPOUND": "OC(Cc1ccccc1Cl)(Cn1[nH]cnc1=S)C1(Cl)CC1 (centres undefined)",
    "PARAMETER_MEASURED": "AC50",
    "RESULT": "inactive"
  },
  {
    "COMPOUND": "N#CCCC(Br)(C#N)CBr (centres undefined)",
    "PARAMETER_MEASURED": "AC50",
    "RESULT": "11 µM (active)"
  },
  {
    "COMPOUND": "N#Cc1ccccc1N",
    "PARAMETER_MEASURED": "AC50",
    "RESULT": "inactive"
  }
]

// AC50 lookup, key: O=[N+]([O-])c1ccc(Nc2ccccc2)cc1
8.91 µM (active)

Now try O=C1C=CC(=O)c2ccccc21 .
4.98 µM (active)

Now try CC(C=O)Cc1ccc2c(c1)OCO2 (centres undefined) .
inactive

---

# EXPERIMENT_SUMMARY: BSK_3C_Proliferation: Cell Proliferation Assessment in the BioMAP Diversity Plus: 3C Assay (AID 2283006)
# EXPERIMENTAL_CONDITIONS: primary human endothelial cells (HUVEC)
The source made the active and inactive calls. The calls were made as follows: active = hit-call score of the fitted dose curve at least 0.9, where 1 is the maximum; inactive = score below 0.9.
The reply should name one outcome from YES = active, NO = inactive

Completed entries (count: 5):
[
  {
    "COMPOUND": "O=[N+]([O-])c1cccc2ccccc12",
    "LABEL_CLASS": "NO"
  },
  {
    "COMPOUND": "N#Cc1cccnc1",
    "LABEL_CLASS": "NO"
  },
  {
    "COMPOUND": "Cc1cc(C)cc(C)c1",
    "LABEL_CLASS": "NO"
  },
  {
    "COMPOUND": "N#CCCC(Br)(C#N)CBr (stereo not drawn)",
    "LABEL_CLASS": "YES"
  },
  {
    "COMPOUND": "O=S(=O)(c1ccc(Cl)cc1)c1cc(Cl)c(Cl)cc1Cl",
    "LABEL_CLASS": "YES"
  }
]

Please state the recorded outcome for this compound: COc1ccccc1N
NO

Now try CC(C)(C)c1ccccc1O .
NO

Now try CCOP(=S)(OCC)SCS(=O)(=O)C(C)(C)C .
NO

---

# EXPERIMENT_SUMMARY: ATG_TA_CIS: Attagene CIS-FACTORIAL HepG2 Assay for human TA Basal Promoter (AID 2282964)
# EXPERIMENTAL_CONDITIONS: HepG2 Attagene CIS-factorial TA basal promoter reporter; actives raise or lower the signal
Activity calls are given as the source filed them. How the source made its calls: active means hit-call score of the fitted dose curve at least 0.9, where 1 is the maximum; inactive means score below 0.9.
The reply should name one outcome from T for active, F for inactive

[
  {
    "COMPOUND": "CCOP(=O)(OCC)SCCSCC",
    "LABEL_CLASS": "F"
  }
]

Please state the recorded outcome for this compound: O=C1c2ccccc2C(=O)C1C(=O)C(c1ccccc1)c1ccc(Cl)cc1 (stereo unspecified)
F

Now try O=c1nc(O)n(Cl)c(=O)n1Cl .
F

Now try C=CCCl .
F

---

# EXPERIMENT_SUMMARY: BSK_CASM3C_SRB: Viability Assessment in the BioMAP Diversity Plus: CASM3C Assay (AID 2283050);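 also: total protein by SRB staining as cytotoxicity measure in parallel cultures; cells exposed to compound for 24 h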
# EXPERIMENTAL_CONDITIONS: primary human coronary artery smooth muscle cells
Calls of active or inactive are those of the source. The calls were made as follows: active = hit-call score of the fitted dose curve at least 0.9, where 1 is the maximum; inactive = score below 0.9.
The reply should name one outcome from active, inactive

Completed entries (count: 8):
[
  {
    "MOLECULE": "N#Cc1cccnc1",
    "LABEL_CLASS": "inactive"
  },
  {
    "MOLECULE": "Cc1c([N+](=O)[O-])c(C)c([N+](=O)[O-])c(C(C)(C)C)c1[N+](=O)[O-]",
    "LABEL_CLASS": "inactive"
  },
  {
    "MOLECULE": "CCOC(=O)C(SP(=S)(OC)OC)c1ccccc1 (centres undefined)",
    "LABEL_CLASS": "inactive"
  },
  {
    "MOLECULE": "Cc1ccc(OP(=O)(Oc2ccc(C)cc2C)Oc2ccc(C)cc2C)c(C)c1",
    "LABEL_CLASS": "inactive"
  },
  {
    "MOLECULE": "CC(C)=CC1C(C(=O)OCc2cccc(Oc3ccccc3)c2)C1(C)C (centres undefined)",
    "LABEL_CLASS": "inactive"
  },
  {
    "MOLECULE": "CCCCCCCCCCCCc1cccc(S(=O)(=O)O)c1",
    "LABEL_CLASS": "inactive"
  },
  {
    "MOLECULE": "Oc1c(Cl)cc(Cl)cc1Cl",
    "LABEL_CLASS": "inactive"
  },
  {
    "MOLECULE": "O=C(O)COc1cc(Cl)c(Cl)cc1Cl",
    "LABEL_CLASS": "inactive"
  }
]

Please state the recorded outcome for this molecule: OCCCCO
inactive

Now try Oc1cc(Cl)c(Cl)cc1Cl .
inactive

Now try Oc1cccc(-c2ccccc2)c1 .
active

Now try CCOP(=S)(OCC)OP(=S)(OCC)OCC .
inactive

Now try C#CCOC(=O)/C=C(C)/C=C/CC(C)CCCC(C)C (centres undefined) .
inactive

Now try Cc1cc(Cl)ccc1OC(C)C(=O)O (centres undefined) .
inactive

---

# EXPERIMENT_SUMMARY: CCTE_Mundy_HCI_iCellGluta_NOG_NeuronCount: CCTE's Neurite Outgrowth Assay in iCellGluta cells for Neuron Count, Mundy Lab (AID 2284340);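 also: cells fixed about 48 h after compound addition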
Records with an inconclusive call do not appear. Calls of active or inactive are those of the source. How the source made its calls: active means hit-call score of the fitted dose curve at least 0.9, where 1 is the maximum; inconclusive means response in the unintended direction; inactive means score below 0.9.
The reply should name one outcome from active, inactive

[
  {
    "MOLECULE": "CS(=O)(=O)c1ccc(C(=O)C2C(=O)CCCC2=O)c(Cl)c1COCC(F)(F)F",
    "LABEL_CLASS": "inactive"
  },
  {
    "MOLECULE": "Cc1cc(C(F)(C(F)(F)F)C(F)(F)F)ccc1NC(=O)c1cccc(I)c1C(=O)NC(C)(C)CS(C)(=O)=O",
    "LABEL_CLASS": "inactive"
  },
  {
    "MOLECULE": "OC(Cc1ccccc1Cl)(Cn1[nH]cnc1=S)C1(Cl)CC1 (stereo not given)",
    "LABEL_CLASS": "active"
  },
  {
    "MOLECULE": "Cc1ccccc1OP(=O)(Oc1ccccc1C)Oc1ccccc1C",
    "LABEL_CLASS": "active"
  }
]

We next turn to a different molecule, shown below.
Please state the recorded outcome for this molecule: CC1(C)[C@H](C(=O)O[C@H](C#N)c2cccc(Oc3ccccc3)c2)[C@@H]1/C=C(\Cl)C(F)(F)F
inactive

---

# EXPERIMENT_SUMMARY: ATG_TGFb_CIS: Attagene CIS-FACTORIAL HepG2 Assay for human Transforming Growth Factor (TGF) (AID 2282967)
# EXPERIMENTAL_CONDITIONS: HepG2 Attagene CIS TGFb reporter, mRNA transcription; actives raise or lower the signal
Calls of active or inactive are those of the source. Rule for the calls: active = hit-call score of the fitted dose curve at least 0.9, where 1 is the maximum; inactive = score below 0.9.
The reply should name one outcome from active, inactive

Please state the recorded outcome for this compound: O=S(=O)(F)C(F)(F)C(F)(F)C(F)(F)C(F)(F)F
inactive

Now try C=CC(=O)OCC(COC(=O)C=C)(COC(=O)C=C)COC(=O)C=C .
inactive

---

# TARGET_UNDER_TEST: human Phosphatase and Tensin Homolog (PTEN), PTEN (gene 5728)
# EXPERIMENT_SUMMARY: NVS_ENZ_hPTEN: NovaScreen (NVS) Enzymatic Assay for human Phosphatase and Tensin Homolog (PTEN) (AID 2283203)
Results filed as inconclusive are left out. Active and inactive are the calls of the source. The calls were made as follows: active = hit-call score of the fitted dose curve at least 0.9, where 1 is the maximum; inconclusive = response in the unintended direction; inactive = score below 0.9.
The reply should name one outcome from t for active, f for inactive

Completed entries (count: 4):
[
  {
    "MOLECULE": "CC(C)O.CC(C)O.OCCN(CCO)CCO.OCCN(CCO)CCO.[Ti]",
    "LABEL_CLASS": "t"
  },
  {
    "MOLECULE": "CCCCCCCCCCCCOS(=O)(=O)O",
    "LABEL_CLASS": "t"
  },
  {
    "MOLECULE": "C[C@]12CC[C@@H](O)C[C@@H]1CC[C@@H]1[C@@H]2CC[C@]2(C)C(=O)CC[C@@H]12",
    "LABEL_CLASS": "f"
  },
  {
    "MOLECULE": "CCCCC(CC)COC(=O)Cl (stereo not given)",
    "LABEL_CLASS": "t"
  }
]

Please state the recorded outcome for this molecule: OC(Cc1ccccc1Cl)(Cn1[nH]cnc1=S)C1(Cl)CC1 (stereo not given)
f

Now try CCCCCCCCCCCCc1cccc(S(=O)(=O)O)c1 .
t
